Target: Protein-S-isoprenylcysteine O-methyltransferase (Homo sapiens, UniProt O60725)
Sequence (O60725 whole entry): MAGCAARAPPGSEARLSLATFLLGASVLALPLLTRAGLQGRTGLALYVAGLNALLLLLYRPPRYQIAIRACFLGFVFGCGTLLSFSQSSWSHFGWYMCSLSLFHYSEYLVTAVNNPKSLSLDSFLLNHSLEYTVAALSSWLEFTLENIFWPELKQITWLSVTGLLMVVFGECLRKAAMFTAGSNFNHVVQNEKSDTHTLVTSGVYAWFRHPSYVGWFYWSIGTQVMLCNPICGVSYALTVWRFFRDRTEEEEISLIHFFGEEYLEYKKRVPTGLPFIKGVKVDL
Settings: at 10 µM
Description: Inhibition of human ICMT at 10 uM incubated with N-Acetyl-S-farnesyl-L-cysteine substrate for 5 mins followed by addition of [14C]-SAM measured after 30 mins by liquid scintillation counting
Measured inhibition, listed per entry.

molSmiles: CC(C)=CCC/C(C)=C/CC/C(C)=C/CSC[C@H](NS(=O)(=O)c1ccc(C)cc1)C(=O)O
inhibition: < 45%

molSmiles: CC(C)=CCC/C(C)=C/CSC[C@H](NS(=O)(=O)c1ccc(F)cc1)C(=O)O
inhibition: 23%

molSmiles: CC(=O)Nc1ccc(S(=O)(=O)N[C@@H](CSC/C=C(\C)CC/C=C(\C)CCC=C(C)C)C(=O)O)cc1
inhibition: < 45%

molSmiles: COc1ccc(S(=O)(=O)N[C@@H](CSC/C=C(\C)CC/C=C(\C)CCC=C(C)C)C(=O)O)cc1
inhibition: < 45%

molSmiles: CC(C)=CCC/C(C)=C/CC/C(C)=C/CSC[C@H](NS(=O)(=O)c1ccc(-c2ccccc2)cc1)C(=O)O
inhibition: < 45%

molSmiles: CCCCCCCCS(=O)(=O)N[C@@H](CSC/C=C(\C)CC/C=C(\C)CCC=C(C)C)C(=O)O
inhibition: < 45%

molSmiles: CC(C)=CCC/C(C)=C/CC/C(C)=C/CSC[C@H](NS(=O)(=O)c1cccc2c(N(C)C)cccc12)C(=O)O
inhibition: 45%

molSmiles: CC(C)=CCC/C(C)=C/CC/C(C)=C/CSC[C@H](NS(=O)(=O)c1ccc([N+](=O)[O-])cc1)C(=O)O
inhibition: > 55%

molSmiles: COc1ccc(S(=O)(=O)N[C@@H](CSC/C=C(\C)CC/C=C(\C)CCC=C(C)C)C(=O)O)cc1OC
inhibition: > 55%

molSmiles: CC(C)=CCC/C(C)=C/CSC[C@H](NS(=O)(=O)c1ccccc1)C(=O)O
inhibition: 22%

molSmiles: CCCCCCCCCCCSC[C@H](NS(=O)(=O)c1cccc([N+](=O)[O-])c1)C(=O)O
inhibition: 32%

molSmiles: CC(C)=CCC/C(C)=C/CC/C(C)=C/CSC[C@H](NS(=O)(=O)c1ccccc1)C(=O)O
inhibition: 45%

molSmiles: CC(C)=CCC/C(C)=C/CC/C(C)=C/CSC[C@H](NS(=O)(=O)c1ccccc1[N+](=O)[O-])C(=O)O
inhibition: 45%

molSmiles: CC(C)=CCC/C(C)=C/CC/C(C)=C/CSC[C@H](NS(=O)(=O)c1ccc2ccccc2c1)C(=O)O
inhibition: 45%

molSmiles: CC(C)=CCC/C(C)=C/CC/C(C)=C/CSC[C@H](NS(=O)(=O)c1c(F)c(F)c(F)c(F)c1F)C(=O)O
inhibition: < 45%

molSmiles: CC(C)=CCC/C(C)=C/CC/C(C)=C/CSC[C@H](NS(=O)(=O)c1ccc(C(C)C)cc1)C(=O)O
inhibition: < 45%

molSmiles: CC(C)=CCC/C(C)=C/CC/C(C)=C/CSC[C@H](NS(=O)(=O)c1cccc([N+](=O)[O-])c1)C(=O)O
inhibition: > 55%

Hey, just so you know, these numbers are from ChEMBL document CHEMBL1770082.
